experiment: Cmax in Beagle dog at 5 mg/kg, iv by LC-MS analysis; format: ADME, organism-based, Canis lupus familiaris; conditions: in vivo
quantity.kind: Cmax
Remember to put the unit after the number in your answer.

Ask: Supply reported Cmax belonging to this compound: CN1CCN(c2ccc(OC(F)(F)F)c(Nc3ncc4c(n3)-c3c(c(C(N)=O)nn3CCO)CC4)c2)CC1 [ONVANSERTIB]
Reply: 1700 nM

====

test: Oral bioavailability in nu/nu mouse at 10 mg/kg by LC-MS analysis; format: ADME, organism-based; settings: in vivo
quantity.kind: bioavailability (%)
Respond numerically; units are % and should not be typed.

Ask: Give bioavailability for the following compound: `CN1CCN(c2ccc(OC(F)(F)F)c(Nc3ncc4c(n3)-c3c(c(C(N)=O)nn3CCO)CC4)c2)CC1`
Reply: 24

====

tested on: A2780; assay: Antiproliferative activity against human A2780 cells assessed as inhibition of cell growth incubated for 72 hrs by cell-titer glo assay; type: functional, cell-based; conditions: A2780, 72 h
quantity.kind: pIC50
To interpret pIC50, take it as minus log10 of a concentration measured in moles per litre.

Ask: Specify the recorded pIC50 for `CN1CCN(c2ccc(OC(F)(F)F)c(Nc3ncc4c(n3)-c3c(c(C(N)=O)nn3CCO)CC4)c2)CC1` , system: A2780.
Reply: 7.40

====

molecular target: Proto-oncogene tyrosine-protein kinase ROS (Homo sapiens)
Sequence (P08922 whole entry): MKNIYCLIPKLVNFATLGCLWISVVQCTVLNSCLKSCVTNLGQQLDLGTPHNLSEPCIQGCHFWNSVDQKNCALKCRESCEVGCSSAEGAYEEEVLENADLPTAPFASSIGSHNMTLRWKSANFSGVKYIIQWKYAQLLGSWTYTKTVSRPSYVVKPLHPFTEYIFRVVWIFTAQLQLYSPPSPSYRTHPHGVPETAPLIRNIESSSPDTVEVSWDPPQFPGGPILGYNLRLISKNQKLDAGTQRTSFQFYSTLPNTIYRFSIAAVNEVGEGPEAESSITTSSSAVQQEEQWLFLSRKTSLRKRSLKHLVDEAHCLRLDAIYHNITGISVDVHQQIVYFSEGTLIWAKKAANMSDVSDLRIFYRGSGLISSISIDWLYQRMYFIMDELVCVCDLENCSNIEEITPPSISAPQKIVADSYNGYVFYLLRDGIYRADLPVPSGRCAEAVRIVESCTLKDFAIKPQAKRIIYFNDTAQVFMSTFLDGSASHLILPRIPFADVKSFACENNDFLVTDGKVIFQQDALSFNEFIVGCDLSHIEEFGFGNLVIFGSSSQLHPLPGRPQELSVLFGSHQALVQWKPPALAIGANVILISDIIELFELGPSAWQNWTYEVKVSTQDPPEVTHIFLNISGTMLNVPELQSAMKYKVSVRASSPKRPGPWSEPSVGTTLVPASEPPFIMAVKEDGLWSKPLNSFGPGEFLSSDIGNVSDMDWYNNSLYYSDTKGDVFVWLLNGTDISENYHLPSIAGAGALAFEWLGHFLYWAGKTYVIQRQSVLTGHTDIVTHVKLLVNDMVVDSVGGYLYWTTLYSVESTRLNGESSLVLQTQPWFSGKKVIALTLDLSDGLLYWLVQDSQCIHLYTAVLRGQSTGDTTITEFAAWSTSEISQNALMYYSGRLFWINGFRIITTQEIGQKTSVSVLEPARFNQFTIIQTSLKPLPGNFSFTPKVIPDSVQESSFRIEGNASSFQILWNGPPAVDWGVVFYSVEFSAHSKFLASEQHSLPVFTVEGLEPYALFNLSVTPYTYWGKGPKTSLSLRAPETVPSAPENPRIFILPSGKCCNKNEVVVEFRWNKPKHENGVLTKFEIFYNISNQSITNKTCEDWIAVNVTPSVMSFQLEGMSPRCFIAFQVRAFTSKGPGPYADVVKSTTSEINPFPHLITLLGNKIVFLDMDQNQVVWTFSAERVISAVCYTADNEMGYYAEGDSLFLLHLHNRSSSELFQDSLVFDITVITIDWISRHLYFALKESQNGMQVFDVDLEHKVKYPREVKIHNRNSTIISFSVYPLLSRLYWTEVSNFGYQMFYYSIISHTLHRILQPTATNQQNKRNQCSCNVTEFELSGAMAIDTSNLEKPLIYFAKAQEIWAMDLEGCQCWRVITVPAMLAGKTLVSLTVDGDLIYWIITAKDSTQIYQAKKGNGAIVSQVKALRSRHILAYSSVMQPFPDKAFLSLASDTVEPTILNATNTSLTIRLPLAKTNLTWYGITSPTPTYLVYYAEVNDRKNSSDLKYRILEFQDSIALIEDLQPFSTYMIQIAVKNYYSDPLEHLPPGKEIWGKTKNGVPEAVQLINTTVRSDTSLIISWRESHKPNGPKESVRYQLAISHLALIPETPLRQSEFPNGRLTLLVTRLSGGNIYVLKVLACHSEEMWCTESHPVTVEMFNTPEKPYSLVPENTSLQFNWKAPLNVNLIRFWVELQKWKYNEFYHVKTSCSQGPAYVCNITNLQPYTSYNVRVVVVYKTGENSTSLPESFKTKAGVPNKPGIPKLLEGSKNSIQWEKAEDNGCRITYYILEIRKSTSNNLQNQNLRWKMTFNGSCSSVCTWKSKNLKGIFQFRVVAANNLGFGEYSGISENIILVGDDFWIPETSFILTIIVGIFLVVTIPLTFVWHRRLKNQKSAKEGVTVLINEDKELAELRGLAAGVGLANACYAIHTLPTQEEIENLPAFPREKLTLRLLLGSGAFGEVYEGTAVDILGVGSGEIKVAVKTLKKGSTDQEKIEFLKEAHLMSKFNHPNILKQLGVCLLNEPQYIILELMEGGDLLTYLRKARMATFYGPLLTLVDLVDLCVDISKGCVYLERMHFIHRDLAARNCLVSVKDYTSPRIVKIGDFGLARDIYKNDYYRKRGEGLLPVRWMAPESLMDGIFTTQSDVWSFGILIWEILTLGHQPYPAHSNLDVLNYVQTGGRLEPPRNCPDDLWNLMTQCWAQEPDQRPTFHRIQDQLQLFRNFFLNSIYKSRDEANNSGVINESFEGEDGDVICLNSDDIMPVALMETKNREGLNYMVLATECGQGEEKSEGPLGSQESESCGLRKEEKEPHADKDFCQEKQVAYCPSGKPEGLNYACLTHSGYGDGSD
quantity.kind: IC50

Ask: Identify IC50 associated with the compound `CN1CCN(c2ccc(OC(F)(F)F)c(Nc3ncc4c(n3)-c3c(c(C(N)=O)nn3CCO)CC4)c2)CC1`
Reply: > 10 µM

====

test system: NCI-H2170; experiment: Antiproliferative activity against human NCI-H2170 cells assessed as inhibition of cell growth incubated for 72 hrs by cell-titer glo assay; type: functional, cell-based; settings: NCI-H2170, 72 h
quantity.kind: IC50 (nM)
Express it in nM; write the number only.

Ask: Given the compound `CN1CCN(c2ccc(OC(F)(F)F)c(Nc3ncc4c(n3)-c3c(c(C(N)=O)nn3CCO)CC4)c2)CC1` , write its reported IC50.
Reply: 15

====

tested on: SAOS-2; test: Antiproliferative activity against human SAOS-2 cells assessed as inhibition of cell growth incubated for 72 hrs by cell-titer glo assay; assay type: functional, cell-based; conditions: SAOS-2, 72 h
quantity.kind: pIC50
Entry type: numeric. Quantity: pIC50, the -log10 of concentration in molar units.

Ask: Return pIC50 for the following molecule: CN1CCN(c2ccc(OC(F)(F)F)c(Nc3ncc4c(n3)-c3c(c(C(N)=O)nn3CCO)CC4)c2)CC1 [ONVANSERTIB]
Reply: 7.35

====

test system: BXPC-3; test: Antiproliferative activity against human BXPC-3 cells assessed as inhibition of cell growth incubated for 72 hrs by cell-titer glo assay; format: functional, cell-based; settings: BXPC-3, 72 h
quantity.kind: IC50 (nM)
Write the value in nM as a bare number.

Ask: Identify the reported IC50 for the following entry. `CN1CCN(c2ccc(OC(F)(F)F)c(Nc3ncc4c(n3)-c3c(c(C(N)=O)nn3CCO)CC4)c2)CC1`
Reply: 117

====

target: CDC7/DBF4 (Cell division cycle 7-related protein kinase/Activator of S phase kinase) (Homo sapiens); experiment: Inhibition of CDC7/DBF4 (unknown origin) in presence of [gamma-33P]ATP
Sequence (Q9UBU7 whole entry): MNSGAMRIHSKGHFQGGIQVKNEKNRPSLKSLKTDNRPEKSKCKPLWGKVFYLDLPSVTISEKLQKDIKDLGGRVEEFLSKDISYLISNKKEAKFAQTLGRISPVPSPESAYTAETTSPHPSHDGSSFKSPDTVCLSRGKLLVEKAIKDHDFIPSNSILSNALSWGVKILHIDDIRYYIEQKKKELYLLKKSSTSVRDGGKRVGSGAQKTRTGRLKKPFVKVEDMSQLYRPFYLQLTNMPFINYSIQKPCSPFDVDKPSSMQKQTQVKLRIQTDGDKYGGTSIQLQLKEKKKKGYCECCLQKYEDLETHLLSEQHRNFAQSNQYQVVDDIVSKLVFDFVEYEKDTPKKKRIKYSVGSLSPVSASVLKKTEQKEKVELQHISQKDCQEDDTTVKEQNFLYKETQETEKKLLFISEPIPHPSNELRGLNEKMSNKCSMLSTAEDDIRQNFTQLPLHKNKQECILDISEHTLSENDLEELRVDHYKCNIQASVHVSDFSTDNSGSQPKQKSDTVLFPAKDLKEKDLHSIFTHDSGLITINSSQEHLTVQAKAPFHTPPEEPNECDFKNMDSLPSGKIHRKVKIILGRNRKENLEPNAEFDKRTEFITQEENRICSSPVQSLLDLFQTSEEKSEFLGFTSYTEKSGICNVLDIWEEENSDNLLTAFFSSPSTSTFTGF
Sequence (O00311 whole entry): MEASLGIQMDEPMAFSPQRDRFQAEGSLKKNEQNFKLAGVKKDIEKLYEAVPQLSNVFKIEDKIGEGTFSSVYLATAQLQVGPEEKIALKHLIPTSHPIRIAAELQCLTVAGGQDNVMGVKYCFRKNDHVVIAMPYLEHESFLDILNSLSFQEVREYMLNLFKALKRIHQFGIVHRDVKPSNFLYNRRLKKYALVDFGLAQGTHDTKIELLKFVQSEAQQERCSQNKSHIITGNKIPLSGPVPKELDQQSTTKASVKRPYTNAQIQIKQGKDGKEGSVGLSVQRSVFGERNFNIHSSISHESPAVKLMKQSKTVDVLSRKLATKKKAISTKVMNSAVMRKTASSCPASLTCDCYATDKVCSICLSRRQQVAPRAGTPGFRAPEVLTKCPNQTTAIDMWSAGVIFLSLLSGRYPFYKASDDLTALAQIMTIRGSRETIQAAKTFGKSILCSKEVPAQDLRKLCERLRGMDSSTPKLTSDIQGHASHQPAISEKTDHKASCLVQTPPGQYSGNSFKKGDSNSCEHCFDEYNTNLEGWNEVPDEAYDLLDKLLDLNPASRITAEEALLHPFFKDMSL
pIC50: −log10 of the molar value.
quantity.kind: pIC50

Ask: Report pIC50 for `CN1CCN(c2ccc(OC(F)(F)F)c(Nc3ncc4c(n3)-c3c(c(C(N)=O)nn3CCO)CC4)c2)CC1`
Reply: < 5.00

The measurements presented in this section are drawn from ChEMBL document CHEMBL5678806.
